# protocol details: in vivo
# condition label: Sprague-Dawley, rat, sc, 0.4 mg/kg
measure: Cmax (ng/mL)
Give the value in ng/mL but do not write ng/mL after it.

Would you kindly share the measured Cmax for CCNC(=O)[C@@H]1CCCN1C(=O)[C@H](CCCNC(=N)N)NC(=O)[C@H](CC(C)C)NC(=O)[C@@H](CC(C)C)NC(=O)[C@H](Cc1ccc(O)cc1)NC(=O)[C@H](CO)NC(=O)[C@H](Cc1c[nH]c2ccccc12)NC(=O)[C@H](Cc1c[nH]cn1)NC(=O)[C@@H]1CCC(=O)N1 [Leuprolide solution] ?
453

----------
# protocol details: in vivo
# condition label: Sprague-Dawley, rat, sc, 0.4 mg/kg
measure: AUC(0-inf)
For clarity, give the value followed by its unit.

Would you kindly share the measured AUC(0-inf) for CC(C)C[C@H](NC(=O)CNC(=O)[C@H](Cc1ccc(O)cc1)NC(=O)[C@H](CO)NC(=O)[C@H](Cc1c[nH]c2ccccc12)NC(=O)[C@H](Cc1cnc[nH]1)NC(=O)[C@@H]1CCC(=O)N1)C(=O)N[C@@H](CCCNC(=N)N)C(=O)N1CCC[C@H]1C(=O)NCC(N)=O ?
31.5 ng·h/mL

----------
# protocol details: in vivo
# condition label: Sprague-Dawley, rat
measure: bioavailability

Would you kindly share the measured bioavailability for CCNC(=O)[C@@H]1CCCN1C(=O)[C@H](CCCNC(=N)N)NC(=O)[C@H](CC(C)C)NC(=O)[C@@H](CC(C)C)NC(=O)[C@H](Cc1ccc(O)cc1)NC(=O)[C@H](CO)NC(=O)[C@H](Cc1c[nH]c2ccccc12)NC(=O)[C@H](Cc1c[nH]cn1)NC(=O)[C@@H]1CCC(=O)N1 [Leuprolide solution] ?
~0.2%

----------
# protocol details: in vivo
# condition label: both, beagle, dog, sc, 0.4 mg/kg
measure: Cmax (ng/mL)
Give the value in ng/mL but do not write ng/mL after it.

Would you kindly share the measured Cmax for CCNC(=O)[C@@H]1CCCN1C(=O)[C@H](CCCNC(=N)N)NC(=O)[C@H](CC(C)C)NC(=O)[C@@H](CC(C)C)NC(=O)[C@H](Cc1ccc(O)cc1)NC(=O)[C@H](CO)NC(=O)[C@H](Cc1c[nH]c2ccccc12)NC(=O)[C@H](Cc1c[nH]cn1)NC(=O)[C@@H]1CCC(=O)N1 [Leuprolide solution] ?
412

----------
# protocol details: in vivo
# condition label: Sprague-Dawley, rat, 2.4 mg/kg
measure: bioavailability
For clarity, give the value followed by its unit.

Would you kindly share the measured bioavailability for CCNC(=O)[C@@H]1CCCN1C(=O)[C@H](CCCNC(=N)N)NC(=O)[C@H](CC(C)C)NC(=O)[C@@H](CC(C)C)NC(=O)[C@H](Cc1ccc(O)cc1)NC(=O)[C@H](CO)NC(=O)[C@H](Cc1c[nH]c2ccccc12)NC(=O)[C@H](Cc1c[nH]cn1)NC(=O)[C@@H]1CCC(=O)N1 [Leuprolide solution] ?
0.23%

----------
# protocol details: in vivo
# condition label: Sprague-Dawley, rat, sc, 0.4 mg/kg
measure: Cmax

Would you kindly share the measured Cmax for CC(C)C[C@H](NC(=O)CNC(=O)[C@H](Cc1ccc(O)cc1)NC(=O)[C@H](CO)NC(=O)[C@H](Cc1c[nH]c2ccccc12)NC(=O)[C@H](Cc1cnc[nH]1)NC(=O)[C@@H]1CCC(=O)N1)C(=O)N[C@@H](CCCNC(=N)N)C(=O)N1CCC[C@H]1C(=O)NCC(N)=O [LHRH solution] ?
79 ng/mL
